B1: FCHSD1 (parent)
chain: LEAAEVILEHAHRGEQTTSQVSWE

Variants of: B1
PROCEDURE_DETAILS: protein stability index of a GFP-peptide fusion (GPS, HEK-293T) (PSI 1-6); higher = more stable;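 also: lentivirally expressed fusions sorted by FACS into six bins by GFP to DsRed ratio, PSI derived from sequencing read proportions per bin multiplied by bin number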
SETUP_CONDITIONS: c terminus: a fixed tail appended
Label criterion met when protein stability index is at or above 4; otherwise label criterion not met.

Challenge: Is it the case that R13H has protein stability index reaching or exceeding 4?
Response given: criterion met

Challenge: Is it the case that V21S has protein stability index reaching or exceeding 4?
Response given: criterion met

Challenge: Is it the case that L1N has protein stability index reaching or exceeding 4?
Response given: criterion met

Challenge: Is it the case that G14H has protein stability index reaching or exceeding 4?
Response given: criterion met

Challenge: Is it the case that L8P has protein stability index reaching or exceeding 4?
Response given: criterion met

***
Challenge: Is it the case that H10I has protein stability index reaching or exceeding 4?
Response given: criterion not met

Challenge: Is it the case that H10G has protein stability index reaching or exceeding 4?
Response given: criterion not met

Challenge: Is it the case that Q20S has protein stability index reaching or exceeding 4?
Response given: criterion met

Challenge: Is it the case that G14N has protein stability index reaching or exceeding 4?
Response given: criterion met

Challenge: Is it the case that L1C has protein stability index reaching or exceeding 4?
Response given: criterion met
